The reported numbers originate from patent US8173672B2.

Biological target: acetylcholine muscarinic M1 receptor (Homo sapiens)
Construct: also called CHOK1/hM1), selected with Geneticin
Sequence (P11229 1-460): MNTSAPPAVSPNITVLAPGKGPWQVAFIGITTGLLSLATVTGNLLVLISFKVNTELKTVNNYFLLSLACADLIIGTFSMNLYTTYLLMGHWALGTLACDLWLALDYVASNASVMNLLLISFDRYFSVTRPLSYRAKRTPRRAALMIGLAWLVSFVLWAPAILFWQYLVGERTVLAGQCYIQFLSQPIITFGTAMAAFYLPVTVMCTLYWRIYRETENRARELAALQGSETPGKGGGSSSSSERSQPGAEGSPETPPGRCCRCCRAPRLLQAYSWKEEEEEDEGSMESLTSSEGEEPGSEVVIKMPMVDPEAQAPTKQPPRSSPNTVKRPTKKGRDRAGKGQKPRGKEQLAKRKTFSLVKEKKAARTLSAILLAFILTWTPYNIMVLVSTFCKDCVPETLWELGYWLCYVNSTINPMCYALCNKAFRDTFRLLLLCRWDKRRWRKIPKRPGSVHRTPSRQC
Assay: muscarinic FLIPR assay: potentiation of acetylcholine (EC20)-stimulated intracellular calcium in CHOnfat/hM1 cells
Conditions: 4 min preincubation, then EC20 acetylcholine (3 nM final), read-out: IP Value (inflection point)
pEC50: −log10 of the molar value.
readout.name: pEC50

Sample records with pEC50:
INSERT INTO results (compound, readout_name, reported) VALUES
  ('O=C(O)c1cc(CN2CCc3ccccc3C2)c2ccccn2c1=O [Example 6]', 'pEC50', 5.77),
  ('O=C(O)c1cc(CN2Cc3ccccc3C[C@@H]2CO)c2ccccn2c1=O [Example 7]', 'pEC50', 5.05),
  ('Cc1ccc2c(c1)CCN(Cc1cc(C(=O)O)c(=O)n3ccccc13)C2 [Example 89]', 'pEC50', 5.17),
  ('O=C(O)c1cc(CN2CCc3cc(Cl)ccc3C2)c2ccccn2c1=O [Example 1]', 'pEC50', 6.29),
  ('O=C(O)c1cc(CN2CCc3ccccc3C2c2ccccc2F)c2ccccn2c1=O (centres unmarked) [Example 18]', 'pEC50', 6.82),
  ('O=C(O)c1cc(CN2CCn3c(-c4ccccc4)cnc3C2)c2ccccn2c1=O [Example 69]', 'pEC50', 5.38),
  ('CCOC(=O)C1c2ccccc2CCN1Cc1cc(C(=O)O)c(=O)n2ccccc12 (centres unmarked) [Example 11]', 'pEC50', 6.54),
  ('O=C(O)c1cc(CN2CCc3cc(-c4ccccc4)ccc3C2)c2ccccn2c1=O [Example 87]', 'pEC50', 5.21),
  ('O=C(O)c1cc(CN2CCc3cnccc3C2)c2ccccn2c1=O [Example 54]', 'pEC50', 6.05);

I = O=C(O)c1cc(CN2CCc3ccccc3C2c2ccncc2)c2ccccn2c1=O (centres unmarked) [Example 17]
II = N#Cc1ccc2c(c1)CCN(Cc1cc(C(=O)O)c(=O)n3ccccc13)C2 [Example 88]
Sort I and II by pEC50 descending and give the first. Return value: the label identifying the chosen record.
I
